These entries and their values trace back to patent US20260209362A1.

Molecular target: T1, biotinylated recombinant mouse IL-12Rβ2 (mouse, UniProt P97378 24-637, random biotinylated)
T1 construct: Recombinant protein produced in-house, biotinylated; also called mIL-12RB2; mouse IL-12RB2
T1 sequence: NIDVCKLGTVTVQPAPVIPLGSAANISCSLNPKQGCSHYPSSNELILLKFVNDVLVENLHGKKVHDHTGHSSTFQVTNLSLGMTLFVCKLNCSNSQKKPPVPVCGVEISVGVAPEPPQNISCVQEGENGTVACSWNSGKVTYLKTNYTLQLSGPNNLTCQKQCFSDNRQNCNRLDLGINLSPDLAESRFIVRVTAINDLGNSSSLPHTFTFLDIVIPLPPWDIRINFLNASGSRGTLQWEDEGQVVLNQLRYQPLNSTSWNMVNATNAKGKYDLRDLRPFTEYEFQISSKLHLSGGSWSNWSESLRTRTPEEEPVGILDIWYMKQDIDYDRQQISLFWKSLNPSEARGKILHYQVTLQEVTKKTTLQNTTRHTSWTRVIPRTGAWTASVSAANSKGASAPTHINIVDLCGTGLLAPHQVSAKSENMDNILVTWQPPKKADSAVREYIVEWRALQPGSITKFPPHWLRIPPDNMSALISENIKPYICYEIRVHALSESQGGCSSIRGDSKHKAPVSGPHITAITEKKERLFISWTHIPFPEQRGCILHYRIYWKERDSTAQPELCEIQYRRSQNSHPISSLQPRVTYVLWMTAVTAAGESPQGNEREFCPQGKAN
Assay: ELISA, periplasmic extract on biotinylated mIL-12Rβ2, signal over control wells
# ELISA binding mIL-12RB2/control listing for each entry below
The reply should be a number in ratio, with the unit left off.

# annotated cases, reported ELISA binding mIL-12RB2/control shown
anti-IL-12Rβ2 VHH clone 20555 (VHH, not shown: small tags and cut ends, tested as periplasmic extract; also called 3CAMS81) VHH: QVQLQESGGGLVQAGGSLRLSCAPSGRTFSTLAMGWFRQAPGKEREVVATISWSGGRTYYADSVKGRFTISRNNAKNTAYLQMNNLRPDDTAVYYCAARETDYGAYDYWGQGTQVTVSS = 9.41
anti-IL-12Rβ2 VHH clone 20468 (VHH, not shown: small tags and cut ends, tested as periplasmic extract; also called 2CAM6) VHH: QVQLQESGGGLVQAGGSLRLSCVASGRTFSSYGMGWFRQAPGKEREFVTGISSAGSWIGDITSYADSVKGRFTISRDNAKNILYLQMNSLKPEDTAVYYCAAAYHGSRYYVGSTANEYTTWGQGTQVTVSS = 9.24
anti-IL-12Rβ2 VHH clone 21057 (VHH, not shown: small tags and cut ends, tested as periplasmic extract; also called 3CRHM35) VHH: QVQLQESGGGLVQAGGSLRLSCAASGRTFSNYAMAWFRQAPGTEREFVAGLSGSGGDTAFYDNSVMGRFTISRDSAKNTMWLQINNLKPEDTAVYYCAAATHVVVNYGLVRRRGTYDYWGQGTQVTVSS = 35.5

Ask | Please report the recorded ELISA binding mIL-12RB2/control for anti-IL-12Rβ2 VHH clone 20542 (VHH, not shown: small tags and cut ends, tested as periplasmic extract; also called 3CAMS12) VHH: QVQLQESGGGLVQAGGSLRLSCAASGRTFSTYAMGWFRQAPGKEREFVAAISWSGGRTYYADSVKGRFTISRDNAKNTAYLQMSSLIPEDTAVYYCAADPADYTGSYYYQRSYDYWGQGTQVTVSS .
Reply | 4.28

Ask | Please report the recorded ELISA binding mIL-12RB2/control for anti-IL-12Rβ2 VHH clone 21065 (VHH, not shown: small tags and cut ends, tested as periplasmic extract; also called 3CRHM240) VHH: QVQLQESGGGSVQAGGSLRLSCAVSGRTVSDYAMGWFRQAPGKEREFVVAMSSSETTVYTNSVKGRITISRDNAKNAVYLQMNALKPEDTAVYYCSMGPITTFQGLARQNEYHYWGQGTQVTVSS .
Reply | 5.72

Ask | Please report the recorded ELISA binding mIL-12RB2/control for anti-IL-12Rβ2 VHH clone 20442 (VHH, not shown: small tags and cut ends, tested as periplasmic extract; also called 2CRM12) VHH: QVQLQESGGGLVQPGGSLRLSCTASGSIFAIDDMYWYRQAPGKQREFVAYITATNSANYLDSVNGRFTISRDNAKNSVYLQMNSLKPEDTAVYYCNAKQIVGFQIDEYWGQGTQVTVSS .
Reply | 6.67

Ask | Please report the recorded ELISA binding mIL-12RB2/control for anti-IL-12Rβ2 VHH clone 20389 (VHH, not shown: small tags and cut ends, tested as periplasmic extract; also called 3CRH73) VHH: QVQLQESGGGLVRAGGSLRLSCAASGHTFSNYVMGWFRQAPGKEREFVAAISWGGSNTYYADSVKGRFTISRDNAKNTVYLQMNSLKVEDTAVYYCAADRRFEGWNYYSMDYWGKGTQVTVSS .
Reply | 1.18

Ask | Please report the recorded ELISA binding mIL-12RB2/control for anti-IL-12Rβ2 VHH clone 20464 (VHH, not shown: small tags and cut ends, tested as periplasmic extract; also called 3CRM86) VHH: QVQLQESGGGLVQAGGSLRLFCTASGSIFAIDDMYWYRQAPGKQREFVAYITATNSANYLDSVNGRFTISRDNAKNSVYLQMNSLKPEDTAVYYCNAKQIVGFQIDEYWGQGTQVTVSS .
Reply | 5.44

Ask | Please report the recorded ELISA binding mIL-12RB2/control for anti-IL-12Rβ2 VHH clone 20486 (VHH, not shown: small tags and cut ends, tested as periplasmic extract; also called 2CAM46) VHH: QVQLQESGGGLVQAGGSLRLSCAPSGRTFSTLAMAWFRQAPGKEREVVATISWSGGRTYYADSVKGRFTISRDNAKNTAFLQMNSLRPDDTAVYYCAARESDYGSYDYWGQGTQVTVSS .
Reply | 6.85

Ask | Please report the recorded ELISA binding mIL-12RB2/control for anti-IL-12Rβ2 VHH clone 20358 (VHH, not shown: small tags and cut ends, tested as periplasmic extract; also called 3CAH34) VHH: QVQLQESGGGSVQPGGSLRLSCGASGFTFSSFGMHWFRQAPGKGQEWAATISSSGGTTYYSDSVKGRFTISRDNAKNTLYLQMNSLKPEDTALYYCARDVTGAVRGQGTQVTVSS .
Reply | 1.12

Ask | Please report the recorded ELISA binding mIL-12RB2/control for anti-IL-12Rβ2 VHH clone 20538 (VHH, not shown: small tags and cut ends, tested as periplasmic extract; also called 2CAMS83) VHH: QVQLQESGGGLVQPGDSLRLSCAASGRTFSSYGMGWFRQAPGKEREFVAAISRGARNTDYADSVKGRFTISRDNAKNTAYLQMNSLNPEDTAVYFCAAAYTYSGSHYVTARSSDYPYWGQGTQVTVSS .
Reply | 4.78

Ask | Please report the recorded ELISA binding mIL-12RB2/control for anti-IL-12Rβ2 VHH clone 20455 (VHH, not shown: small tags and cut ends, tested as periplasmic extract; also called 3CRM6) VHH: QVQLQESGGGLVQPGGSLRLSCTASGSIFAIDDMYWYRQAPGKQREFVAYITATNSANYLDSVNGRFTISRDNAKNSVYLQMNSLKPEDTAVYYCNTKQIVGFQIDEYWGQGTQVTVSS .
Reply | 11.5

Ask | Please report the recorded ELISA binding mIL-12RB2/control for anti-IL-12Rβ2 VHH clone 20451 (VHH, not shown: small tags and cut ends, tested as periplasmic extract; also called 2CRM83) VHH: QVQLQESGGGLVQPGGSLRLSCAASGFTFSAYAMSWVRQAPGKGLEWVSSISSTGTNPNYADSVKGRFTISRDNAKNTLYLQMNSLKPEDTAVYYCAEAYRNYSPPGQGTQVTVSS .
Reply | 33.5

Ask | Please report the recorded ELISA binding mIL-12RB2/control for anti-IL-12Rβ2 VHH clone 20481 (VHH, not shown: small tags and cut ends, tested as periplasmic extract; also called 2CAM38) VHH: QVQLQESGGGLVQAGGSLRLSCAASGRTFSSYGMGWFRQAPGKERDFVAAISRDARITDYADSVKGRFTISRDNVKNTVYLQMNSLNPEDTAVYFCAAAYTYSGSHYVTARSSDYHSWGQGTQVTVSS .
Reply | 15.8

Ask | Please report the recorded ELISA binding mIL-12RB2/control for anti-IL-12Rβ2 VHH clone 20536 (VHH, not shown: small tags and cut ends, tested as periplasmic extract; also called 2CAMS53) VHH: QVQLQESGGGMVQAGGSLRLSCAASGRTFSSYGMGWFRQAPGKEREFVAAISRGARNTDYADSVKGRFTISRDNAKNTAYLQMNSLNPEDTAVYFCAAAYTYSGSHYVTARSSDYPYWGQGTQVTVSS .
Reply | 3.38
